# Tested on: 817829-284-R-J1-PDC complex spheroid viability;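 further: spheroids exposed to compounds for 7 days; 100% = DMSO vehicle-treated spheroids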
# assay remarks: Anticancer human tumor 817829-284-R-J1-PDC patient-derived colon adenocarcinoma cell line growth inhibition [POLQ]
# measurement conditions: second compound 0.0316 µM; first compound 0.1 µM; active compounds read low
quantity measured: viability, T/C (%)
Provide the reading as a plain figure in %.

Return the recorded viability, T/C value; entry: O=c1[nH]cc(F)c(=O)[nH]1 + Nc1ccc(C#CCN(C(=O)Cc2ncc(C(F)(F)F)cc2C(F)(F)F)c2ccc(F)cc2)nn1 110

Return the recorded viability, T/C value; entry: CC1COCCN1c1cc(C2(S(C)(=N)=O)CC2)nc(-c2ccnc3[nH]ccc23)n1 (stereo not given) + COC1C(OC(N)=O)C(O)C(Oc2ccc3c(O)c(NC(=O)c4ccc(O)c(CC=C(C)C)c4)c(=O)oc3c2C)OC1(C)C 74.6

Return the recorded viability, T/C value; entry: CCc1cc2c(N3CCc4c(cc(Cn5ccnc5)cc4-c4cn(C)nc4C(F)(F)F)C3=O)cc(C)nc2c(OC)n1 + COC1C(OC(N)=O)C(O)C(Oc2ccc3c(O)c(NC(=O)c4ccc(O)c(CC=C(C)C)c4)c(=O)oc3c2C)OC1(C)C 82.2

Return the recorded viability, T/C value; entry: COc1cc(C2c3cc4c(cc3C(OC3OC5COC(C)OC5C(O)C3O)C3COC(=O)C23)OCO4)cc(OC)c1O (stereo not given) + Cc1cccc(N(C)C(=O)C2C(O)CCN2c2nc(C)cc(C(F)(F)F)c2C#N)c1 29.6

Return the recorded viability, T/C value; entry: COc1cc2cc(C(=O)CCC(=O)O)sc2cc1OC + Cc1cccc(N(C)C(=O)C2C(O)CCN2c2nc(C)cc(C(F)(F)F)c2C#N)c1 93.1

Values from PubChem BioAssay AID1963839
